# SYSTEM: human CRHR2 (Homo sapiens)
# Construct: expressed in transfected cells
# Sequence (Q13324 whole entry): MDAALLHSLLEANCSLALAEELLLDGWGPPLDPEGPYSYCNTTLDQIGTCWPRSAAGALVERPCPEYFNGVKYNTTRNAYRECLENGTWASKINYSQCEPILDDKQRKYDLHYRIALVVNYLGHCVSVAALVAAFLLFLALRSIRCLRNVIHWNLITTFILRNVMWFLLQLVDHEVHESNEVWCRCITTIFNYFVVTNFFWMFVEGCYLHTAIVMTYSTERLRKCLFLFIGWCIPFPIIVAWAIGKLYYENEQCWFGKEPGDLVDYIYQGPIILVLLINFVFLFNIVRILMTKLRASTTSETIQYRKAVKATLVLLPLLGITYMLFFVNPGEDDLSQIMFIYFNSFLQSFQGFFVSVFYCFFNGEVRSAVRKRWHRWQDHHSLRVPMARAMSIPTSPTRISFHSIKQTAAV
# PROTOCOL TEXT: cAMP assay, h-CRHR2 transfected SK-N-MC cells
# Type: cell-based
# CONDITION LABEL: Table 13; cysteine mutation, N-ethylmaleimide capping, pegylation; read-out: pA50 (converted)
# Protocol: The concentration required for 50% maximum effect (A50) was 0.4 nM. Human CRHR1 (accession number X72304) or CRHR2 (accession number U34587) were cloned into pcDNA3.1/Zeo expression vector and stably transfected into SK—N-MC cells by electroporation. […] Media containing released intracellular cAMP was transferred to a 96-well flash plate coated with scintillant fluid containing an anti-cAMP antibody. […] [^125I]-cAMP was measured on a TopCount scintillation counter (Perkin Elmer, Mass., U.S.A). […]
Where no end group is shown, it is not given here.
RECORDED ENDPOINT: EC50

Bench note, human CRHR2 (Homo sapiens): entry TKFTLSLDVPTNIMNLLFCIAKAKNLRAQAAANAHLMAQI-NH2 [SEQ ID NO: 20] , its EC50 = 1 nM

Bench note, human CRHR2 (Homo sapiens): entry TKFTLSLDVPTNIMNLLFNIAKAKNLRAQAAANAHLCAQI-NH2 [SEQ ID NO: 38] , its EC50 = ~214 nM

Bench note, human CRHR2 (Homo sapiens): entry TKFTLSLDVPTNIMNLLFNIAKAKNLRAQAAACAHLMAQI-NH2 [SEQ ID NO: 34] , its EC50 = ~479 nM
